In this section we review reported pIC50 values for a set of compounds.
Biological target: G810R mutant RET kinase (Homo sapiens, UniProt P07949, G810R);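 also: HTRF KinEASE-TK enzymatic assay with 1 nM recombinant RET G810R, 1 h at 22 °C, dual-wavelength ratiometric readout, 100% control without compound, 0% from pre-quenched reactions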
Sequence (P07949 29-1114 G810R): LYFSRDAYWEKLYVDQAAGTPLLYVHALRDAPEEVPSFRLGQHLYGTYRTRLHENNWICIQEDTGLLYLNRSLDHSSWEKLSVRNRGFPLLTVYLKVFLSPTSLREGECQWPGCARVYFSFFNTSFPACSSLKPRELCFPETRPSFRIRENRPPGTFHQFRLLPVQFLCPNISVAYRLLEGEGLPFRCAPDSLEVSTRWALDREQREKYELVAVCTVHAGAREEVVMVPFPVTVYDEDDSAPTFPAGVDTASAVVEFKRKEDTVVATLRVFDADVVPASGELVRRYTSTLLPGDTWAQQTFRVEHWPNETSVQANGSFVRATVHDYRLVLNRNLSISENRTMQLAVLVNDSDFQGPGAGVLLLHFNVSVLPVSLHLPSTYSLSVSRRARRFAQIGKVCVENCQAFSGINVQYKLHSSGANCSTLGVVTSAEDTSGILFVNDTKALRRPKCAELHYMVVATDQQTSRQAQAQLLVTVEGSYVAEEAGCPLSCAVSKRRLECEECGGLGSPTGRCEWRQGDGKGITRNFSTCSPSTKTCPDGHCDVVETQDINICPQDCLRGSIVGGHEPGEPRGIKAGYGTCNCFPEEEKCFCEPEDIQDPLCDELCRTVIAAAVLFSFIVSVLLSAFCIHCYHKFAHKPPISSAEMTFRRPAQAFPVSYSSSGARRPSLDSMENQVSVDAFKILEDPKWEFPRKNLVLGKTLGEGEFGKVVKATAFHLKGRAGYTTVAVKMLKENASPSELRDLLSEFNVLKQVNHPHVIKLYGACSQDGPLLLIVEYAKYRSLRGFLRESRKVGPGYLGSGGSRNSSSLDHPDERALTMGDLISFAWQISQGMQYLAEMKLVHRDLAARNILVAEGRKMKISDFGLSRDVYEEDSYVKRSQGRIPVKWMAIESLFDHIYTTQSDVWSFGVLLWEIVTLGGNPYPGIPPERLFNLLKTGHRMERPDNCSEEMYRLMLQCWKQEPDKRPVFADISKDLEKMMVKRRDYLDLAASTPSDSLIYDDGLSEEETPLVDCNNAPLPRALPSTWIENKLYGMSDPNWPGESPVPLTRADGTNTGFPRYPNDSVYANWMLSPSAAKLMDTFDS
Test: biochemical
Please express pIC50 as -log10 of the molar concentration.

>>> result_value("CC(C)n1c2c(c3c(N)ncnc31)-c1cc3cc(Cl)ccc3n1C(=O)NC2")
6.87

Which pIC50 is listed for CC(C)n1c2c(c3c(N)ncnc31)-c1noc(C3CC3)c1CN(C(=O)C1CC1)C2 ?
6.19

Follow-up entry: COc1ccc2c(c1)cc1n2C(=O)NCc2c-1c1c(N)ncnc1n2C(C)C
6.30

Follow-up entry: Cc1ccc2c(c1)cc1n2C(=O)NCc2c-1c1c(N)ncnc1n2C(C)C
7.03

Follow-up entry: CC(=O)N1CCC(n2c3c(c4c(N)ncnc42)-c2noc(C4CC4)c2C(O)CC3)C1 (stereo not shown) [Example 134, 2,2,2-trifluoroacetate]
6.25

Follow-up entry: Nc1ncnc2c1c1c(n2C2CCC(O)C2)CCC(=O)c2c-1noc2C1CC1 (mixture of isomers) [Example 128, 2,2,2-trifluoroacetate]
7.01

Follow-up entry: C[C@@H](n1c2c(c3c(N)ncnc31)-c1noc(C3CC3)c1[C@H](O)CC2)C(F)(F)F (single isomer, unassigned) [Example 147, 2,2,2-trifluoroacetate]
7.13

Follow-up entry: Nc1ncnc2c1c1c(n2[C@H]2C[C@@H](CO)C2)CCC(O)c2c-1noc2C1CC1 (stereo partly shown)
6.56

Follow-up entry: Nc1ncnc2c1c1c(n2C2CCC(O)C2)CCC(O)c2c-1noc2C1CC1 (stereo not shown)
7.64

Follow-up entry: Nc1ncnc2c1c1c(n2C(CF)CF)CCC(O)c2c-1noc2C1CC1 (stereo not shown)
7.55
